- Test system: MDA-MB-468 breast
- Experiment: NCI tumour cell line growth inhibition, 48 h; in the data active means GI50 below about 0.43 µM; inactive means the rest
Select the correct class. Options are active, inactive and nothing else.

Below, 5 compounds whose answers are already recorded.
{"Compound": "O=C(CCCCCCCCC(=O)N/N=C\\c1ccccc1O)N/N=C\\c1ccccc1O", "Tested On": "MDA-MB-468 breast", "Label Class": "inactive"}
{"Compound": "C#Cc1c(F)ccc2cc(O)cc(-c3ncc4c(N5CC6CCC(C5)N6)nc(OC[C@@]56CCCN5C[C@H](F)C6)nc4c3F)c12", "Tested On": "MDA-MB-468 breast", "Label Class": "inactive"}
{"Compound": "Cc1c(C(N)=O)sc2c1C(=O)N(Cc1ccccc1)C1=NN=C(c3ccc(Cl)cc3)CN12", "Tested On": "MDA-MB-468 breast", "Label Class": "inactive"}
{"Compound": "COc1ccc(C(=O)c2cc(OC)c(OC)c(OC)c2)cc1OC(=O)CCl", "Tested On": "MDA-MB-468 breast", "Label Class": "inactive"}
{"Compound": "O=C1NC(=NC23CC4CC(CC(C4)C2)C3)N/C1=C\\c1ccc2ncsc2c1", "Tested On": "MDA-MB-468 breast", "Label Class": "inactive"}

Here is the next item to consider.
[in] What was the test verdict on "Nc1c(C(=O)c2cccc(-c3ccncc3)c2)cnn1-c1ccc(F)cc1F" ?
[out] inactive

----------
Recorded TGI by entry
- Test system: MDA-MB-468 breast
- Experiment: NCI tumour cell line growth inhibition, 48 h
Number only, in µM; omit the unit.

Here's what some known entries look like.
{"Substance Smiles": "O=C(CCCCCCCCC(=O)N/N=C\\c1ccccc1O)N/N=C\\c1ccccc1O", "TGI, µM": 5.23}
{"Substance Smiles": "COc1ccc(-c2nc(-c3nc4ccc(OC)cc4[nH]3)c3ccccn23)cc1", "TGI, µM": 84.5}
{"Substance Smiles": "C[C@H]1[C@H](C)CC[C@]2(CO)CC[C@]3(C)C(=CC[C@@H]4[C@@]5(C)CCCNC(C)(C)[C@@H]5CC[C@]43C)[C@H]12", "TGI, µM": 3.44}
{"Substance Smiles": "COc1cc(CSc2nc3ccc(C)cc3c(=O)n2-c2ccccc2)cc(OC)c1OC", "TGI, µM": 2.11}

Could you now look at the following compound, please?
[in] For "CC(C)(C)n1cc(-c2ccnc(NCCCNS(=O)(=O)c3ccc(C(F)(F)F)cc3)c2)c(-c2cccc(O)c2)n1" , what is its reported TGI?
[out] 4.06

----------
- Tested on: MDA-MB-468 breast
- Experiment: NCI tumour cell line growth inhibition, 48 h; in the data active = GI50 below about 0.43 µM; inactive = the rest
Mark one answer only. Choices: true = active, false = inactive

Use these answered entries as a reference point.
{"Molecule": "COc1ccc(-c2cc(=O)[nH]c3c(OC)c4ccccc4c(OC)c23)cc1", "Label Class": "false"}
{"Molecule": "CC(C)(C)OC(=O)N1CCN(CCn2cc(C(F)(F)F)c3c(Cl)ncnc32)CC1", "Label Class": "false"}
{"Molecule": "CCN(CC)c1ccc(/C=N/NC(=O)c2ccc(NS(C)(=O)=O)cc2)c(O)c1", "Label Class": "true"}
{"Molecule": "COc1cnc2c(c1)C(=O)c1c-2n(CCCn2ccnc2)c(=O)c2cc(F)ccc12", "Label Class": "true"}

// next entry
[in] Test call, this molecule: "COc1c(C)c2c(c(O)c1C/C=C(\C)CCC(=O)O)C(=O)OC2"
[out] false
